Tested on: NCI-H2405
Assay: relative viability (nuclei count vs DMSO), 5 days (fraction); higher = more cells survive
Details: first compound 1.265 µM
Just a reminder that ties go to Not satisfied: only relative viability strictly below 0.4 counts as Satisfied.

>>> label_class("Cc1sc2c(c1C)C(c1ccc(Cl)cc1)=N[C@@H](CC(=O)OC(C)(C)C)c1nnc(C)n1-2 [JQ1] + N=C(N)NC(=N)NCCc1ccccc1 [Phenformin] (partner 250 µM)")
"Satisfied"
>>> label_class("Cc1sc2c(c1C)C(c1ccc(Cl)cc1)=N[C@@H](CC(=O)OC(C)(C)C)c1nnc(C)n1-2 [JQ1] + CC(=O)Nc1cccc(-n2c(=O)n(C3CC3)c(=O)c3c(Nc4ccc(I)cc4F)n(C)c(=O)c(C)c32)c1 [Trametinib] (partner 0.02 µM)")
"Not satisfied"
>>> label_class("Cc1sc2c(c1C)C(c1ccc(Cl)cc1)=N[C@@H](CC(=O)OC(C)(C)C)c1nnc(C)n1-2 [JQ1] + C[C@@H](Oc1cc(-c2cnn(C3CCNCC3)c2)cnc1N)c1c(Cl)ccc(F)c1Cl [Crizotinib] (partner 1 µM)")
"Not satisfied"
>>> label_class("Cc1sc2c(c1C)C(c1ccc(Cl)cc1)=N[C@@H](CC(=O)OC(C)(C)C)c1nnc(C)n1-2 [JQ1] + CC(C)C[C@H](NC(=O)[C@H](Cc1ccccc1)NC(=O)c1cnccn1)B(O)O [Bortezomib] (partner 0.002 µM)")
"Not satisfied"
>>> label_class("Cc1sc2c(c1C)C(c1ccc(Cl)cc1)=N[C@@H](CC(=O)OC(C)(C)C)c1nnc(C)n1-2 [JQ1] + NC(=O)Nc1cc(-c2cccc(F)c2)sc1C(=O)N[C@H]1CCCNC1 [AZD7762] (partner 0.2 µM)")
"Not satisfied"
>>> label_class("Cc1sc2c(c1C)C(c1ccc(Cl)cc1)=N[C@@H](CC(=O)OC(C)(C)C)c1nnc(C)n1-2 [JQ1] + C[C@]1(O)C[C@@H](c2nc(-c3ccc4ccc(-c5ccccc5)nc4c3)c3c(N)nccn32)C1 [Linsitinib] (partner 1 µM)")
"Not satisfied"
>>> label_class("Cc1sc2c(c1C)C(c1ccc(Cl)cc1)=N[C@@H](CC(=O)OC(C)(C)C)c1nnc(C)n1-2 [JQ1] + CS(=O)(=O)N1CCN(Cc2cc3nc(-c4cccc5[nH]ncc45)nc(N4CCOCC4)c3s2)CC1 [Pictilisib] (partner 1 µM)")
"Satisfied"
>>> label_class("Cc1sc2c(c1C)C(c1ccc(Cl)cc1)=N[C@@H](CC(=O)OC(C)(C)C)c1nnc(C)n1-2 [JQ1] + COc1cccc2cc(-c3nc([C@H]4CC[C@H](C(=O)O)CC4)n4ncnc(N)c34)[nH]c12 [OSI-027] (partner 0.5 µM)")
"Not satisfied"

###

Tested on: NCI-H23
Assay: relative viability (nuclei count vs DMSO), 5 days (fraction); higher = more cells survive
Settings: first compound 158.11 µM
Lab note: cut-off is 0.3. Strictly less in relative viability is Satisfied. Exactly 0.3 or more is Not satisfied.

>>> label_class("O=C(O)CCCCC(CCSCc1ccccc1)SCc1ccccc1 (stereo unspecified) [CPI-613] + C[C@]1(O)C[C@@H](c2nc(-c3ccc4ccc(-c5ccccc5)nc4c3)c3c(N)nccn32)C1 [Linsitinib] (partner 1 µM)")
"Not satisfied"
>>> label_class("O=C(O)CCCCC(CCSCc1ccccc1)SCc1ccccc1 (stereo unspecified) [CPI-613] + Cc1cc(Nc2cc(N3CCN(C)CC3)nc(Sc3ccc(NC(=O)C4CC4)cc3)n2)n[nH]1 [Tozasertib] (partner 0.1 µM)")
"Satisfied"
>>> label_class("O=C(O)CCCCC(CCSCc1ccccc1)SCc1ccccc1 (stereo unspecified) [CPI-613] + O=C(CCCCCCC(=O)Nc1ccccc1)NO [Vorinostat] (partner 1 µM)")
"Satisfied"
>>> label_class("O=C(O)CCCCC(CCSCc1ccccc1)SCc1ccccc1 (stereo unspecified) [CPI-613] + Nc1nc2[nH]cc(CCc3ccc(C(=O)N[C@@H](CCC(=O)O)C(=O)O)cc3)c2c(=O)[nH]1 [Pemetrexed] (partner 0.2 µM)")
"Satisfied"
>>> label_class("O=C(O)CCCCC(CCSCc1ccccc1)SCc1ccccc1 (stereo unspecified) [CPI-613] + COc1cccc2cc(-c3nc([C@H]4CC[C@H](C(=O)O)CC4)n4ncnc(N)c34)[nH]c12 [OSI-027] (partner 0.5 µM)")
"Satisfied"

###

Test system: NCI-H2023
Experiment: relative viability (nuclei count vs DMSO), 5 days (fraction); higher = more cells survive
Conditions: first compound 2.53 µM
relative viability values, listed per item
PARAMETER: relative viability

>>> value("Cc1cnc(-c2cnc(NCCNc3ccc(C#N)cn3)nc2-c2ccc(Cl)cc2Cl)[nH]1 + CCNC(=O)c1noc(-c2cc(C(C)C)c(O)cc2O)c1-c1ccc(CN2CCOCC2)cc1 [Luminespib] (partner 0.01 µM)")
0.774
>>> value("Cc1cnc(-c2cnc(NCCNc3ccc(C#N)cn3)nc2-c2ccc(Cl)cc2Cl)[nH]1 + CC(=O)c1c(C)c2cnc(Nc3ccc(N4CCNCC4)cn3)nc2n(C2CCCC2)c1=O [Palbociclib] (partner 0.5 µM)")
0.541
>>> value("Cc1cnc(-c2cnc(NCCNc3ccc(C#N)cn3)nc2-c2ccc(Cl)cc2Cl)[nH]1 + C[C@@H](Oc1cc(-c2cnn(C3CCNCC3)c2)cnc1N)c1c(Cl)ccc(F)c1Cl [Crizotinib] (partner 1 µM)")
0.688
>>> value("O=c1[nH]c2ccccc2n1C1CCN(CCCC(c2ccc(F)cc2)c2ccc(F)cc2)CC1 [Pimozide] + Cc1cc(Nc2cc(N3CCN(C)CC3)nc(Sc3ccc(NC(=O)C4CC4)cc3)n2)n[nH]1 [Tozasertib] (partner 0.1 µM)")
0.228

###

Tested on: LC-2-ad
Test: relative viability (nuclei count vs DMSO), 5 days (fraction); higher = more cells survive
Details: first compound 0.5 µM
With a cut-off of 0.4, any relative viability strictly below it is called Y; any relative viability meeting it or above is called N.

>>> label_class("COc1cc2nccc(Oc3ccc(NC(=O)Nc4cc(C)on4)c(Cl)c3)c2cc1OC [Tivozanib] + NC(=O)Nc1cc(-c2cccc(F)c2)sc1C(=O)N[C@H]1CCCNC1 [AZD7762] (partner 0.2 µM)")
"N"
>>> label_class("COc1cc2nccc(Oc3ccc(NC(=O)Nc4cc(C)on4)c(Cl)c3)c2cc1OC [Tivozanib] + Cc1nc(NC(=O)N2CCC[C@H]2C(N)=O)sc1-c1ccnc(C(C)(C)C(F)(F)F)c1 [Alpelisib] (partner 2 µM)")
"N"
>>> label_class("COc1cc2nccc(Oc3ccc(NC(=O)Nc4cc(C)on4)c(Cl)c3)c2cc1OC [Tivozanib] + CS(=O)(=O)N1CCN(Cc2cc3nc(-c4cccc5[nH]ncc45)nc(N4CCOCC4)c3s2)CC1 [Pictilisib] (partner 1 µM)")
"Y"
>>> label_class("Nc1ccn([C@@H]2O[C@H](CO)[C@@H](O)[C@@H]2O)c(=O)n1 [Cytarabine] + COc1cccc2cc(-c3nc([C@H]4CC[C@H](C(=O)O)CC4)n4ncnc(N)c34)[nH]c12 [OSI-027] (partner 0.5 µM)")
"Y"
>>> label_class("Nc1ccn([C@@H]2O[C@H](CO)[C@@H](O)[C@@H]2O)c(=O)n1 [Cytarabine] + NC(=O)Nc1cc(-c2cccc(F)c2)sc1C(=O)N[C@H]1CCCNC1 [AZD7762] (partner 0.2 µM)")
"Y"
>>> label_class("Nc1ccn([C@@H]2O[C@H](CO)[C@@H](O)[C@@H]2O)c(=O)n1 [Cytarabine] + Nc1nc2[nH]cc(CCc3ccc(C(=O)N[C@@H](CCC(=O)O)C(=O)O)cc3)c2c(=O)[nH]1 [Pemetrexed] (partner 0.2 µM)")
"Y"
>>> label_class("Nc1ccn([C@@H]2O[C@H](CO)[C@@H](O)[C@@H]2O)c(=O)n1 [Cytarabine] + O=C(c1cc(Cc2n[nH]c(=O)c3ccccc23)ccc1F)N1CCN(C(=O)C2CC2)CC1 [Olaparib] (partner 8 µM)")
"N"
>>> label_class("Nc1ccn([C@@H]2O[C@H](CO)[C@@H](O)[C@@H]2O)c(=O)n1 [Cytarabine] + CCNC(=O)c1noc(-c2cc(C(C)C)c(O)cc2O)c1-c1ccc(CN2CCOCC2)cc1 [Luminespib] (partner 0.01 µM)")
"N"
>>> label_class("Nc1ccn([C@@H]2O[C@H](CO)[C@@H](O)[C@@H]2O)c(=O)n1 [Cytarabine] + O=C(CCCCCCC(=O)Nc1ccccc1)NO [Vorinostat] (partner 1 µM)")
"N"
>>> label_class("Nc1ccn([C@@H]2O[C@H](CO)[C@@H](O)[C@@H]2O)c(=O)n1 [Cytarabine] + Cc1nc(Nc2ncc(C(=O)Nc3c(C)cccc3Cl)s2)cc(N2CCN(CCO)CC2)n1 [Dasatinib] (partner 0.075 µM)")
"Y"
>>> label_class("Nc1ccn([C@@H]2O[C@H](CO)[C@@H](O)[C@@H]2O)c(=O)n1 [Cytarabine] + CS(=O)(=O)CCNCc1ccc(-c2ccc3ncnc(Nc4ccc(OCc5cccc(F)c5)c(Cl)c4)c3c2)o1 [Lapatinib] (partner 2 µM)")
"Y"
>>> label_class("COc1cc2nccc(Oc3ccc(NC(=O)Nc4cc(C)on4)c(Cl)c3)c2cc1OC [Tivozanib] + Cc1nc(Nc2ncc(C(=O)Nc3c(C)cccc3Cl)s2)cc(N2CCN(CCO)CC2)n1 [Dasatinib] (partner 0.075 µM)")
"Y"
